The following binders are shown together with reported EC50 (nM), PBMC assay (hIFNγ release) values.
# experimental-target: T1, hIL-18 receptor (hIL-18Rα and hIL-18Rβ) (human, UniProt Q13478 19-541; O95256 20-599)
# T1 sequence (looked up) 1: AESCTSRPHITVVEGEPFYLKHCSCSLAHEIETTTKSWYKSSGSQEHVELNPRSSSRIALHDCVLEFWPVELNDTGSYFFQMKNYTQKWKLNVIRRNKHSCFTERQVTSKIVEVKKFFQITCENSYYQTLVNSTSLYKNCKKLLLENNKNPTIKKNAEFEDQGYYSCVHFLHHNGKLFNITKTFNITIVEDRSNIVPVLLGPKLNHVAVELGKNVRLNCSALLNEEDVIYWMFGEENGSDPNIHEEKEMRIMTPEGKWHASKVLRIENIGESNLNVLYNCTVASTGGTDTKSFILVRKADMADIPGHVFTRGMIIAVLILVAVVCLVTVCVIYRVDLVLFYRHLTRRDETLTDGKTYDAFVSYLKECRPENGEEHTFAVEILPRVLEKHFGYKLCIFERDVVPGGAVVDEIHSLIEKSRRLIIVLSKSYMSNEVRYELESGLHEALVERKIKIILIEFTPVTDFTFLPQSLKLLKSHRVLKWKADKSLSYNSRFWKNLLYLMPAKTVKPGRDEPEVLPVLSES
# T1 sequence (looked up) 2: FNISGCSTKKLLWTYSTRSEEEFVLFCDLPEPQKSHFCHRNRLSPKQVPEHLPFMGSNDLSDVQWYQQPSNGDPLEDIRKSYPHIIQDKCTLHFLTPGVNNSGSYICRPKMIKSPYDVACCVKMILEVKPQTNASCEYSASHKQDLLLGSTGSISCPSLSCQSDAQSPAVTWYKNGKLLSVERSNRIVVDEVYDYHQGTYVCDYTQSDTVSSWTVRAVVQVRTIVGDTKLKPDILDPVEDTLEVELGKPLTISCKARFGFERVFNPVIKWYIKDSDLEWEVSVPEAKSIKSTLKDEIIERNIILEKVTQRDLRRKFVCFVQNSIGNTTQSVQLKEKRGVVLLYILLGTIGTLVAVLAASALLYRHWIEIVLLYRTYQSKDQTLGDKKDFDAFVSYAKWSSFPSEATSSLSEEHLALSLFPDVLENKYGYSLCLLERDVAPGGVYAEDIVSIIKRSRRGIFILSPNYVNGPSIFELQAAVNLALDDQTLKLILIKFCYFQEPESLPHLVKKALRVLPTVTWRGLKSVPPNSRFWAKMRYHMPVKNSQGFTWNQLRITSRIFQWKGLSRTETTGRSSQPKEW
# test-protocol: cell-based or functional assay
A number alone suffices; assume nM.

Some solved entries appear below for comparison.
IL-18 variant polypeptide WM8 (ligand) YFPKLRSKLSVIRNLNDQVLFIDQGNRPLFEDMTDSDCRDNAPRTIFIISMYKDSQPRGMAVTISVKCEKISTLSCENKIISFKEMNPPDSIKDTKSDIIFFQRSVPGHDNKMQFESSSYEGYFLACEKERDLFKLILKKEDELGDRSIMFTVQNED: 0.68
IL-18 variant polypeptide M11 (ligand) YFPKLRSKLSVIRNLNDQVLFIDQGNRPLFEDMTDSDCRDNAPRTIFIISMYKSSRNRGMAVTISVKCEKISTLSCENKIISFKEMNPPDGIKDTKSDIIFFQTSVPGHDNKMQFESSSYEGYFLACEKERDLFKLILKKEDELGDRSIMFTVQNED: 0.044
IL-18 variant polypeptide WM10 (ligand) YFPKLKSKLSVIRNLNDQVLFIDQGNRPLFEDMTDSDCRDNAPRTIFIISMYKDSQPRGMAVTISVKCEKISTLSCENKIISFKEMNPPDSIKDTKSDIIFFQRSVPGHDNKMQFESSSYEGYFLACEKERDLFKLILKKEDELGDRSIMFTVQNED: 0.53
IL-18 variant polypeptide M13 (ligand) YFPKLKSKLSVIRNLNDQVLFIDQGNRPLFEDMTDSDCRDNAPRTIFIISMYKQSIWRGMAVTISVKCEKISTLSCENKIISFKEMNPPDNIKDTKSDIIFFQRSVPGHDNKMQFESSSYEGYFLACEKERDLFKLILKKEDELGDRSIMFTVQNED: 0.02
IL-18 variant polypeptide M33 (ligand) YFEKLHSKLSVIRNLNDQVLFIDQGNRPLFEDMTDSDCRDNAPRTIFIISMYKRSTHRGMAVTISVKCEKISTLSCENKIISFKEMNPPDNIKDTKSDIIFFQRSVPGHDNKMQFESSSYEGYFLACEKERDLFKLILKKEDELGDRSIMFTVQNED: 0.51

According to the records, this binder IL-18 variant polypeptide MM5 (ligand) YFGKLGSKLSVIRNLNDQVLFIDQGNRPLFEDMTDSDCRDNAPRTIFIISMYKLSTERGMAVTISVKCEKISTLSCENKIISFKEMNPPDGIKDTKSDIIFFQSSVPGHDNKMQFESSSYEGYFLACEKERDLFKLILKKEDELGDRSIMFTVQNED displays EC50 (nM), PBMC assay (hIFNγ release) of 0.035

GET /value?item= IL-18 variant polypeptide M17 (ligand) YFPKLRSKLSVIRNLNDQVLFIDQGNRPLFEDMTDSDCRDNAPRTIFIISMYKLSTARGMAVTISVKCEKISTLSCENKIISFKEMNPPDGIKDTKSDIIFFQRSVPGHDNKMQFESSSYEGYFLACEKERDLFKLILKKEDELGDRSIMFTVQNED &field=EC50 (nM), PBMC assay (hIFNγ release) returns 0.13

# credit: patent US20260092093A1
